meta.source: PubChem BioAssay (NCATS)

# tested target: Parathyroid hormone/parathyroid hormone-related peptide receptor (Homo sapiens) (UniProt Q03431)
# Sequence (Q03431 whole entry, looked up): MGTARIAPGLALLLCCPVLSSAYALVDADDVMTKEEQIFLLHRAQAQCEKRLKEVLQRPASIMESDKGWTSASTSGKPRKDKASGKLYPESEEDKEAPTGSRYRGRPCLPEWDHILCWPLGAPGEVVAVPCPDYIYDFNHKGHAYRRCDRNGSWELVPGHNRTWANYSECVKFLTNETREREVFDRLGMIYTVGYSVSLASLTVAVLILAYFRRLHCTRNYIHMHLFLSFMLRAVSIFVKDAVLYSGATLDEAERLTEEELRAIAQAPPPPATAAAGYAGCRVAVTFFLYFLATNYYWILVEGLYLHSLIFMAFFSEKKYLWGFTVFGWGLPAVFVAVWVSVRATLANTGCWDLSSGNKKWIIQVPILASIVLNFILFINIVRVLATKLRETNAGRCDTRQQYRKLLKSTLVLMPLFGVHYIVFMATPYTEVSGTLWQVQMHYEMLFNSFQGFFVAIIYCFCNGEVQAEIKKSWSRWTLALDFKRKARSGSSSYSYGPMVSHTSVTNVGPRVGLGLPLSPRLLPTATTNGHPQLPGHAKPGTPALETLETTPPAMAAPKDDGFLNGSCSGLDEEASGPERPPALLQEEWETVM
# method: qHTS for PTHR1 Agonists: Optimization Screen against the NCGC LOPAC library (AID 1347079);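 also: GloSensor cAMP luminescence in HEK-293 GP2 cells expressing human PTHR1 with IBMX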
# run parameters: HEK293 GP2 PTHR1 GloSensor cAMP luminescence, 1 h; series mostly up to 57.1 µM
Calls of active or inactive are those of the source. Calls follow the shape of the dose curve; as a rule, active = well fitted activation curve with a large enough effect; inconclusive = small, poorly fitted or top-dose-only effect; inactive = no such curve, though single readings can be large or run the other way.
Choose one outcome from this list and give only that: class 1 for active, class 0 for inactive

CCN(CC)c1ncnc2c1ncn2[C@@H]1O[C@H](COP(=O)(O)OP(=O)(O)C(Br)(Br)P(=O)(O)O)[C@@H](O)[C@H]1O    class 0
CC(C)ON([C@@H](C(=O)NO)C(C)C)S(=O)(=O)c1ccc(-c2ccccc2)cc1    class 0
CCOC(=O)C1=C(C)NC(C)=C(C(=O)OCC)C1c1c(F)c(F)c(F)c(F)c1F    class 0
Cc1cc(NC(=O)Nc2ccc3c(ccn3C)c2)sn1    class 0

Fill in: this test's call for CC(C)Cc1ccc([C@H](C)C(=O)O)cc1 is ___ class 0

Also CN(C)CCCO[C@@H]1[C@H]2OC(C)(C)O[C@H]2O[C@@H]1[C@H](O)CO , if possible. class 0

Also Nc1nc(Cl)nc2c1ncn2[C@@H]1O[C@H](COP(=O)(O)OP(=O)(O)OP(=O)(O)O)[C@@H](O)[C@H]1O , if possible. class 0

Also Nc1ncnc2c1c(I)cn2[C@@H]1C[C@H](N)[C@@H](O)[C@H]1O , if possible. class 0

Also COC(=O)c1c(C)[nH]c(C)c1C(=O)c1ccccc1Cc1ccccc1 , if possible. class 0

Also NCCSSCCN , if possible. class 0

Also COc1cc2nc(N3CCN(C(=O)OCc4ccccc4)C(C(=O)NC(C)(C)C)C3)nc(N)c2cc1OC (stereo not drawn) , if possible. class 0
